Tested on: RXF 393 renal
procedureSummary: NCI tumour cell line growth inhibition, 48 h
Documented TGI across a set of compounds
measurementKind: TGI

compound | measurementKind | reportedResult
Cc1cccc(O)c(=O)c1 | TGI | > 100 µM
C=C1CC(OC)(C(O)C(=O)N[C@H]2OCO[C@H]3C2O[C@H](C[C@H](O)COC)C(C)(C)C3OC)O[C@H](C)[C@@H]1C (stereo partly specified) | TGI | > 0.00772 µM
Cn1c(=O)c2[nH]c(CCC(=O)O)nc2n(C)c1=O | TGI | > 100 µM
Cc1cccc2c1C(=O)[C@@](C)([C@]1(C)Nc3cccc(C)c3C1=O)N2 | TGI | > 100 µM
CSC1NNC2(C(=O)N1)c1ccccc1-c1ccccc12 (stereo unspecified) | TGI | > 10 µM
Oc1ccc2ccccc2c1OCc1nnc(CCCCCCCCc2nnc(COc3c(O)ccc4ccccc34)o2)o1 | TGI | > 100 µM
Cc1ccc(/C=C2\CN(Cc3cn(CCNc4ccnc5cc(Cl)ccc45)nn3)C/C(=C\c3ccc(C)cc3)C2=O)cc1 | TGI | 3.36 µM
O=C(O)Cc1cc(=O)[nH]c2c1C(=O)CCC2 | TGI | > 100 µM
COc1cccc(C2CC(=O)c3cccn32)c1 (stereo unspecified) | TGI | > 100 µM
CSc1ccccc1P(CCP(c1ccccc1SC)c1ccccc1SC)c1ccccc1SC | TGI | > 84.9 µM
O=C(NCc1cccnc1)C(=O)NCc1cccnc1 | TGI | > 100 µM
COc1cc(CNC(=O)CCSc2nc3ccccc3c(=O)n2Cc2cc(OC)c(OC)c(OC)c2)cc(OC)c1OC | TGI | 26 µM
C#CCOc1cccc(Nc2ncc3ncn(C4CCN(C(=O)CCl)C4)c3n2)c1 (stereo unspecified) | TGI | > 62.5 µM
CN/N=C(\C(=O)Nc1ccc([N+](=O)[O-])cc1[N+](=O)[O-])C1NC(=O)NC1=O (stereo unspecified) | TGI | > 100 µM
Cc1nn(-c2ccccn2)c2c1C(SC#N)=C(C=O)CC2 | TGI | 17.6 µM
S=c1[nH]nc(SCc2ccccc2Cl)c2[nH]cnc12 | TGI | > 100 µM
COc1cc(N=Nc2cccc(S(N)(=O)=O)c2)c2ccccc2c1N | TGI | 33.6 µM
CN(CCN(C)C(=O)CCn1ccc(=O)[nH]c1=O)C(=O)CCn1ccc(=O)[nH]c1=O | TGI | > 100 µM
O=C1NC(O)CCN1C1CC(O)C(CO)O1 (stereo unspecified) | TGI | > 100 µM
N#Cc1ccc2c(c1)C(=O)c1c-2n(CCCN=[N+]=[N-])c(=O)c2cc([N+](=O)[O-])ccc12 | TGI | > 50 µM
CCC1CCC2c3c([nH]c4ccccc34)C3C(=O)N(c4ccc(OC)cc4)C(=O)C3C2C1 (stereo unspecified) | TGI | > 100 µM

====

Reported TGI by item:
Test system: OVCAR-3 ovarian
procedureSummary: NCI tumour cell line growth inhibition, 48 h
measurementKind: TGI

compound | testedSystem | reportedResult
CCCC(=O)OC1CC(n2cc(F)c(=O)[nH]c2=O)OC1CO (stereo unspecified) | OVCAR-3 ovarian | > 10 µM
C[C@@H]1OCC(O)C([C@H]2OC(c3ccccc3)=N[C@H]2CO)O1 (stereo partly specified) | OVCAR-3 ovarian | > 100 µM
O=C1OC(c2ccccc2)=N/C1=C/N1CCCC1C(=O)O (stereo unspecified) | OVCAR-3 ovarian | > 100 µM
CCOC(=O)NC(=O)c1cn(C2OC(CO)C(O)C2O)c(=O)[nH]c1=O (stereo unspecified) | OVCAR-3 ovarian | > 100 µM
O=C1C(=Cc2ccccc2[N+](=O)[O-])N=C(c2ccccc2)N1n1c(-c2ccccc2)nc2ccccc2c1=O | OVCAR-3 ovarian | > 100 µM
C#CCOc1cccc(Nc2ncc3ncn(C4CCN(C(=O)CCl)C4)c3n2)c1 (stereo unspecified) | OVCAR-3 ovarian | > 62.5 µM
O=C(NCc1ccccc1)c1c(O)c2ccccc2[nH]c1=O | OVCAR-3 ovarian | > 100 µM
CCOC(=O)C1=C(C)N(c2ccc(C)cc2)C2(O)C=CC(=O)C3=C(O)c4ccccc4C(=O)C312 (stereo unspecified) | OVCAR-3 ovarian | > 100 µM
O=C(NC/C=C/Br)NC1CCNc2ccccc21 (stereo unspecified) | OVCAR-3 ovarian | > 100 µM
OC(O)(C(F)(F)F)C(F)(F)F | OVCAR-3 ovarian | > 100 µM
CCC1(CC)C(=O)[N-]C(=O)[N-]C1=O.[Au+].[Au+].c1ccc([PH+](c2ccccc2)c2ccccc2)cc1.c1ccc([PH+](c2ccccc2)c2ccccc2)cc1 | OVCAR-3 ovarian | 2.59 µM
N#C/C(=C\c1cccnc1)c1nc2ccccc2o1 | OVCAR-3 ovarian | > 100 µM
N#CC1CCc2c(c(-c3cn[nH]c3C(F)(F)F)nc3c(F)cc4[nH]ncc4c23)C1 (stereo unspecified) | OVCAR-3 ovarian | 42.6 µM
C/C(=C\c1ccccc1)C(=O)NCc1ccc(C(=O)NCCc2c[nH]c3ccccc23)cc1 | OVCAR-3 ovarian | > 100 µM
COC(=O)/C=C\C(C#N)(C#N)N=Cc1ccsc1 | OVCAR-3 ovarian | 5.37 µM
Cc1ccc(SCC(O)=C2C(=O)CCCC2=O)cc1 | OVCAR-3 ovarian | > 100 µM
CCOC(=O)/C(C#N)=C(N)/C(=N\Nc1cccc(C(F)(F)F)c1)C(=O)OCC | OVCAR-3 ovarian | > 100 µM
S=C(Nc1ccccc1)N1CCn2c1nsc2=Nc1ccccc1 | OVCAR-3 ovarian | > 100 µM
COc1cc(C(=O)C/C(CCC(=O)Nc2ccc(Cl)cc2Cl)=N/Nc2nnc(C)n2N)ccc1O | OVCAR-3 ovarian | > 100 µM
O=C(Nc1ccc(-c2ccnc(Nc3ccc(N4CCOCC4)cc3)n2)cc1)C1CCCN1 (stereo unspecified) | OVCAR-3 ovarian | 27.3 µM
c1ccc(-c2[nH]c(-c3ccccc3)c(-c3cnccn3)c2-c2cnccn2)cc1 | OVCAR-3 ovarian | > 100 µM

====

Tested on: NCI/ADR-RES ovarian
procedureSummary: NCI tumour cell line growth inhibition, 48 h
Reported GI50 values for the following compounds.

smilesNotation | testedSystem | GI50
NC1CCCCC1N.O=S(=O)([O-])CCCN1CCN(CCO)CC1.O=S(=O)([O-])CCCN1CCN(CCO)CC1.[Pt+4] | NCI/ADR-RES ovarian | 1470 nM
FC(F)(F)c1cc(NC2=NCCN=C(Nc3cc(C(F)(F)F)cc(C(F)(F)F)c3)SS2)cc(C(F)(F)F)c1 | NCI/ADR-RES ovarian | 5230 nM
Cc1ccc2cnc(N)c(C#Cc3cncc(C(=O)Nc4ccc(CN5CCN(C)CC5)c(C(F)(F)F)c4)c3)c2c1 | NCI/ADR-RES ovarian | 746 nM
CN(C)CCNc1c2c(c(NCCN(C)C)c3c(CO)c[nH]c13)C(=O)c1ccccc1C2=O | NCI/ADR-RES ovarian | 4060 nM
O=c1oc2cc(OS(=O)(=O)c3ccccc3)ccc2c2c1CCCCC2 | NCI/ADR-RES ovarian | 4530 nM
O=C(Nc1cccc([N+](=O)[O-])c1)c1cc2ccccc2cc1O | NCI/ADR-RES ovarian | 1760 nM

====

Tested on: SR leukemia
procedureSummary: NCI tumour cell line growth inhibition, 48 h

compound | TGI
CC(C)c1nccn1Cc1ccc(Cl)cc1Cl | > 100 µM
O=C(Nc1cccc([N+](=O)[O-])c1)c1cc2ccccc2cc1O | 8.17 µM
N#C/C(=C\c1cccnc1)c1nc2ccccc2o1 | > 100 µM
Cc1cccc2c1C(=O)[C@@](C)([C@]1(C)Nc3cccc(C)c3C1=O)N2 | > 100 µM
O=S(=O)(/N=C1/SC(=Nc2ccccc2)N(c2ccccc2)/C1=N/S(=O)(=O)c1ccccc1)c1ccccc1 | 50.6 µM
CC1(C)O[C@@H](CP(c2cccc3ccccc23)c2cccc3ccccc23)[C@H](CP(c2cccc3ccccc23)c2cccc3ccccc23)O1 | > 100 µM
CC(C)CC(NC(=O)C(COc1ccc([N+](=O)[O-])cc1)Cc1ccccc1)C(=O)Nc1ccccc1 (stereo not given) | > 100 µM
CCOC(=O)C1=C(C)N(c2ccc(C)cc2)C2(O)C=CC(=O)C3=C(O)c4ccccc4C(=O)C312 (stereo not given) | 2.6 µM
O=C(NCc1ccccc1)c1c(O)c2ccccc2[nH]c1=O | > 100 µM
C[C@H]1CC2=CC(=O)CC[C@]2(C)[C@H]2CC[C@@]3(C)[C@@H](CC[C@]3(C)O)[C@H]12 | 55.5 µM
O=c1oc2cc(OS(=O)(=O)c3ccccc3)ccc2c2c1CCCCC2 | > 100 µM
C/C(=C\CNc1nc(Cl)nc2nc[nH]c12)CO | > 100 µM
C[n+]1c(-c2ccc(/C=N/Nc3ccnc(N/N=C/c4ccc(-c5cn6ccccc6[n+]5C)cc4)n3)cc2)cn2ccccc21 | > 100 µM
FC(F)(F)c1cc(NC2=NCCN=C(Nc3cc(C(F)(F)F)cc(C(F)(F)F)c3)SS2)cc(C(F)(F)F)c1 | 20.4 µM
O=C(NCc1cccnc1)C(=O)NCc1cccnc1 | > 100 µM
Cc1ccc(S(=O)(=O)N2CCN(CCO)CCN(S(=O)(=O)c3ccc(C)cc3)CCN(CCO)CC2)cc1 | 27.8 µM
COc1cc(CC2CC(c3ccc4c(c3)OCO4)OC2=O)cc(OC)c1OC (stereo not given) | > 100 µM
S=c1[nH]nc(SCc2ccccc2Cl)c2[nH]cnc12 | > 100 µM
CCCNc1cccc(-n2ncc3c(N/N=C/c4ccncc4)ncnc32)c1 | > 25 µM
COC(=O)/C(=N/O)C(C(=O)OC)C(=O)C(=O)Nc1c(Cl)cc(C)cc1S(=O)(=O)O (stereo not given) | 42.8 µM

Data provenance is PubChem BioAssay (NCI).
